Target: T1, human HIF-1α PAS-B (238-349), recombinant, His-tagged (human, UniProt Q16665 238-349, labelled with Monolith NT-647 dye for MST)
T1 construct: range 238-349; Expressed in E. coli BL21(DE3)-Rosetta from pET28a; also called HIF-1α PAS-B domain; PAS-B domain of HIF-1α; not shown: His tag from pET28a vector (BamHI/SacI cloning)
T1 sequence (Q16665 238-349): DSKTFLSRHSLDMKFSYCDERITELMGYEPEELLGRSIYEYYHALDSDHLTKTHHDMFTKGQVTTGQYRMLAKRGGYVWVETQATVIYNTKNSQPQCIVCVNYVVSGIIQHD
Test: MST, HIF-1α PAS-B; bar chart of Kd (µM) for residues at position 1 of CRLIIF
parameter_measured: Kd

binder | parameter_measured | result
ARLIIF (head-to-tail cyclic (cyclo-), also called ARLIIF; cyclic peptide #9) [cyclo-ala arg leu ile ile phe] | Kd | > 200 µM

Take each entry in turn and give its Kd.
1. SRLIIF (head-to-tail cyclised, Bar 'S' in the chart of C1 substitutions of CRLIIF; Comparative peptide; also called Cyclo-SRLIIF; cyclo-ser arg leu ile ile phe) [S]
2. TRLIIF (head-to-tail cyclised, Bar 'T' in the chart of C1 substitutions of CRLIIF; Comparative peptide; also called Cyclo-TRLIIF; cyclo-thr arg leu ile ile phe) [T]

Out:
["169 µM", "> 200 µM"]

src = patent US20240270793A1
